We begin with a simple list: items and their reported RP-LC retention time.
method_description: gradient 5% acetonitrile 3 min, to 50% in 2 min, to 85% in 15 min, held 3 min, 100 µL/min
condition_set: column: Zorbax Extend-C18 2.1 x 50 mm; eluents: water / acetonitrile, 0.1% formic acid
Express your answer in s, writing the number without its unit.

As a guide, the following entries are already answered.
[[record]]
molecule = "Cc1cc(N2CCCCC2C)n2nc(-c3ccccc3)nc2n1 (stereo not drawn)"
observation_type = "RP-LC retention time"
endpoint_result = 966

[[record]]
molecule = "CC1=C(c2cccc(Cl)c2)S(=O)(=O)N=C1N1CCCN(C(=O)C(C)C)CC1"
observation_type = "RP-LC retention time"
endpoint_result = 786

[[record]]
molecule = "CCc1noc(-c2ccc(-n3ncc(C(=O)N(C)C)c3C)nc2)n1"
observation_type = "RP-LC retention time"
endpoint_result = 748

[[record]]
molecule = "CCc1nn2c(CNC(=O)c3ccc(F)c(Cl)c3)c(C)nc2s1"
observation_type = "RP-LC retention time"
endpoint_result = 710


Dear colleague, I am looking for the recorded RP-LC retention time of the following molecule: CCOC(=O)c1[nH]c(C)c(C(=O)C(C)N(C(=O)c2ccc(F)cc2)C2CC2)c1C (stereo not drawn) 890

Dear colleague, I am looking for the recorded RP-LC retention time of the following molecule: CN(C)S(=O)(=O)c1ccc(-c2nnc(C(=O)NCc3ccccc3F)o2)cc1 840

Dear colleague, I am looking for the recorded RP-LC retention time of the following molecule: CCn1c(=O)c(N2CCCC(C(=O)NCCc3c[nH]c4ccc(Cl)cc34)C2)nc2ccccc21 (stereo not drawn) 1010

Dear colleague, I am looking for the recorded RP-LC retention time of the following molecule: CCc1ccc(N2C=C(C(=O)OC)S(=O)(=O)c3ccccc32)cc1 942
